# Tested on: Avena fatua (AVEFA)
# experimentalDetails: Glasshouse assay for herbicidal activity (pre- and post-emergence), percentage phytotoxicity
# Format: in vivo
# condition: Avena fatua, pre-emergence, 480 h, Rate 250 g/ha; pre-emergence; assessed visually 20 DAA; 100%=total damage, 0%=no damage; read-out: Pre-emergence herbicidal activity (percentage phytotoxicity) AVEFA PRE
The following compounds are shown together with reported pest or weed control at 250 g/ha values.
measurementKind: pest or weed control at 250 g/ha (%)

1. Cc1cc(-c2ncc(Cl)cc2F)cc(C)c1C1C(=O)CC(CC(=O)NC(C)(C)C)C1=O (stereo not shown) [Compound A39]
100
2. Cc1cc(-c2ncc(Cl)cc2F)cc(C)c1C1C(=O)CC(CC(=O)NCc2ccc(C(F)(F)F)nc2)C1=O (stereo not shown) [Compound A115]
90
3. Cc1cc(-c2ccc(C#N)cc2F)cc(C)c1C1C(=O)CC(CC(=O)NC(C)C)C1=O (stereo not shown) [Compound A38]
90
4. CC#Cc1cc(C)c(C2C(=O)CC(CC(=O)NC(C)(C)CC)C2=O)c(CC)c1 (stereo not shown) [Compound A50]
100

====

# Test system: Alopecurus myosuroides (ALOMY)
# experimentalDetails: Glasshouse assay for herbicidal activity (pre- and post-emergence), percentage phytotoxicity
# Type: in vivo
# condition: Alopecurus myosuroides, pre-emergence, 480 h, Rate 250 g/ha; pre-emergence; assessed visually 20 DAA; 100%=total damage, 0%=no damage; read-out: Pre-emergence herbicidal activity (percentage phytotoxicity) ALOMY PRE
measurementKind: pest or weed control at 250 g/ha (%)

1. Cc1cc(-c2ccc(Cl)cn2)cc(C)c1C1C(=O)CC(CC(=O)NCc2cccc(Cl)c2)C1=O (stereo not shown)
70
2. CCC(C)NC(=O)CC1CC(=O)C(c2c(C)cc(C)cc2C)C1=O (stereo not shown)
100
3. Cc1cc(C)c(C2C(=O)CC(CC(=O)NC3CCc4ccccc43)C2=O)c(C)c1 (stereo not shown)
0
4. CC#Cc1cc(C)c(C2C(=O)CC(CC(=O)NCC3CC3)C2=O)c(C)c1 (stereo not shown)
100

====

# Test system: Winter Wheat variety 'Hereward'
# experimentalDetails: Glasshouse assay for crop safety, post-emergence, +/- safener cloquintocet-mexyl (CQC), percentage phytotoxicity
# Type: in vivo
# condition: 250 g/ha, with safener cloquintocet-mexyl (CQC) seed treatment 0.5 g/kg seed, evaluated after 13 days, 100=total damage, 0=no damage
# Method: Test—Glasshouse Assay for Crop Safety. […] The test plants were then grown in a glasshouse under controlled conditions (at 24/16° C., day/night; 14 hours light; 65% humidity) and watered twice daily. After 13 days for pre and post-emergence, the test was evaluated (100=total damage to plant; 0=no damage to plant).
measurementKind: Post-emergence Crop Selectivity, percentage phytotoxicity, Wheat +CQC

1) Cc1cc(-c2cncnc2)cc(C)c1C1C(=O)CC(CC(=O)NCc2cccc(Cl)c2)C1=O (stereo not drawn) [Compound A142]
50%
2) CCC(C)NC(=O)CC1CC(=O)C(c2c(C)cc(C)cc2C)C1=O (stereo not drawn) [Compound A3]
10%
3) Cc1cc(C)c(C2C(=O)CC(CC(=O)NCc3ccccc3)C2=O)c(C)c1 (stereo not drawn) [Compound A4]
10%
4) Cc1cc(-n2cc(Cl)cn2)cc(C)c1C1C(=O)CC(CC(=O)NC2(c3ccccn3)CC2)C1=O (stereo not drawn) [Compound A73]
20%
5) COCC(C)NC(=O)CC1CC(=O)C(c2c(C)cc(C)cc2C)C1=O (stereo not drawn) [Compound A16]
30%
6) Cc1cc(C)c(C2C(=O)CC(CC(=O)NC3(c4ccccn4)CC3)C2=O)c(C)c1 (stereo not drawn) [Compound A18]
20%
